target: Phosphatidylinositol 4,5-bisphosphate 3-kinase catalytic subunit beta isoform (Homo sapiens, UniProt P42338); assay: Inhibition of PI3Kbeta (unknown origin) using PIP2 as substrate preincubated for 15 mins followed by substrate addition measured after 60 mins in presence of ATP by HTRF method
Sequence (P42338 whole entry, canonical isoform): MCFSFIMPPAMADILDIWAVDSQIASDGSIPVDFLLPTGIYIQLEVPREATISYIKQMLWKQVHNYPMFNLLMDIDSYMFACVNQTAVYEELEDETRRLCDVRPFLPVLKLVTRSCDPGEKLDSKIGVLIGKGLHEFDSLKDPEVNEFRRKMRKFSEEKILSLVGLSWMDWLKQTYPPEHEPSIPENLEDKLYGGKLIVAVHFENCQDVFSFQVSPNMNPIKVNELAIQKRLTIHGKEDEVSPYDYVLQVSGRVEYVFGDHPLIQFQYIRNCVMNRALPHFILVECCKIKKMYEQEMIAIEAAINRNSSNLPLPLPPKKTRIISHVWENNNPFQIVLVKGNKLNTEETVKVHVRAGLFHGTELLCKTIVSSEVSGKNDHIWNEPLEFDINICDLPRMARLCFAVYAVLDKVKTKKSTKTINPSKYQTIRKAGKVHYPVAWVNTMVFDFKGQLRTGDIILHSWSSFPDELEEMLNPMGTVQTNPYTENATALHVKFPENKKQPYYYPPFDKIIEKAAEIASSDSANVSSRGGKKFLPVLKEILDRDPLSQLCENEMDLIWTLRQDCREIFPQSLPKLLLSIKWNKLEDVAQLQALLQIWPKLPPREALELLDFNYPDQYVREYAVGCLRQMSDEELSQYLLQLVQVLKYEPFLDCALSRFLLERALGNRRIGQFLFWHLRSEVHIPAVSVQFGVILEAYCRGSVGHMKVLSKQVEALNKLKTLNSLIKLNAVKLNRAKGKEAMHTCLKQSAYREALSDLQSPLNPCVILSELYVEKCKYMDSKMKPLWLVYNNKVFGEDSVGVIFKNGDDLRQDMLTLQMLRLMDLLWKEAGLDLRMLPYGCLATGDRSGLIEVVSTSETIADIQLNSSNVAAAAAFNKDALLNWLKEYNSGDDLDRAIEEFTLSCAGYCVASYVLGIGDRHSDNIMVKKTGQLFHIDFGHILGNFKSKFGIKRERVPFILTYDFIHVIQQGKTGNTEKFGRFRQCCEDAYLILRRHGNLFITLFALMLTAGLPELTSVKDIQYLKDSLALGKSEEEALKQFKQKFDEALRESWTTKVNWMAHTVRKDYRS
Exercise: state measured pIC50 for each of the compounds provided.
Note on pIC50: it is the negative log10 of concentration, concentration in mol/L.

// query Find the recorded pIC50 belonging to Cc1nnc2n1[C@H]1CCN(Cc3cc4nc(-c5cccc(O)c5)nc(N5CCOCC5)c4s3)C[C@@H]1CC2 (relative stereo) and report it.
// result 6.90

// query Find the recorded pIC50 belonging to `Cc1nncn1C1CCN(Cc2cc3nc(-c4cccc(O)c4)nc(N4CCOCC4)c3s2)CC1` and report it.
// result 6.80

// query Find the recorded pIC50 belonging to Cc1nnc2n1[C@H]1CCN(Cc3cc4nc(-c5cccc6[nH]ncc56)nc(N5CCOCC5)c4s3)C[C@@H]1CC2 (relative stereo) and report it.
// result 6.30

// query Find the recorded pIC50 belonging to Cc1nnc2n1[C@H]1CCN(Cc3cc4nc(-c5cccc6[nH]ccc56)nc(N5CCOCC5)c4s3)C[C@H]1CC2 (relative stereo) and report it.
// result 6.50

====

target: Phosphatidylinositol 4,5-bisphosphate 3-kinase catalytic subunit beta isoform (Homo sapiens, UniProt P42338); test: Inhibition of PI3Kbeta (unknown origin) using PIP2 as substrate preincubated for 15 mins followed by substrate addition measured after 60 mins in presence of ATP by HTRF method
Measured Attribute: IC50 (nM)
Dear colleague, please return just the value in nM, with no unit written.

// query Find the recorded IC50 belonging to FC(F)(F)c1nnc2n1[C@H]1CCN(Cc3cc4nc(-c5cccc6[nH]ncc56)nc(N5CCOCC5)c4s3)C[C@H]1CC2 (relative stereo) and report it.
// result 398

// query Find the recorded IC50 belonging to Cc1nnc2n1[C@H]1CCN(Cc3cc4nc(-c5cccc6[nH]ccc56)nc(N5CCOCC5)c4s3)C[C@@H]1CC2 (relative stereo) and report it.
// result 316

// query Find the recorded IC50 belonging to FC(F)(F)c1nnc2n1[C@H]1CCN(Cc3cc4nc(-c5cccc6[nH]ccc56)nc(N5CCOCC5)c4s3)C[C@@H]1CC2 (relative stereo) and report it.
// result 158

====

Exercise: state measured log10 of IC50 for each of the compounds provided.
target: Phosphatidylinositol 4,5-bisphosphate 3-kinase catalytic subunit alpha isoform (Homo sapiens, UniProt P42336); test: Inhibition of PI3Kalpha (unknown origin) using PIP2 as substrate preincubated for 15 mins followed by substrate addition measured after 60 mins in presence of ATP by HTRF method
Sequence (P42336 whole entry, canonical isoform): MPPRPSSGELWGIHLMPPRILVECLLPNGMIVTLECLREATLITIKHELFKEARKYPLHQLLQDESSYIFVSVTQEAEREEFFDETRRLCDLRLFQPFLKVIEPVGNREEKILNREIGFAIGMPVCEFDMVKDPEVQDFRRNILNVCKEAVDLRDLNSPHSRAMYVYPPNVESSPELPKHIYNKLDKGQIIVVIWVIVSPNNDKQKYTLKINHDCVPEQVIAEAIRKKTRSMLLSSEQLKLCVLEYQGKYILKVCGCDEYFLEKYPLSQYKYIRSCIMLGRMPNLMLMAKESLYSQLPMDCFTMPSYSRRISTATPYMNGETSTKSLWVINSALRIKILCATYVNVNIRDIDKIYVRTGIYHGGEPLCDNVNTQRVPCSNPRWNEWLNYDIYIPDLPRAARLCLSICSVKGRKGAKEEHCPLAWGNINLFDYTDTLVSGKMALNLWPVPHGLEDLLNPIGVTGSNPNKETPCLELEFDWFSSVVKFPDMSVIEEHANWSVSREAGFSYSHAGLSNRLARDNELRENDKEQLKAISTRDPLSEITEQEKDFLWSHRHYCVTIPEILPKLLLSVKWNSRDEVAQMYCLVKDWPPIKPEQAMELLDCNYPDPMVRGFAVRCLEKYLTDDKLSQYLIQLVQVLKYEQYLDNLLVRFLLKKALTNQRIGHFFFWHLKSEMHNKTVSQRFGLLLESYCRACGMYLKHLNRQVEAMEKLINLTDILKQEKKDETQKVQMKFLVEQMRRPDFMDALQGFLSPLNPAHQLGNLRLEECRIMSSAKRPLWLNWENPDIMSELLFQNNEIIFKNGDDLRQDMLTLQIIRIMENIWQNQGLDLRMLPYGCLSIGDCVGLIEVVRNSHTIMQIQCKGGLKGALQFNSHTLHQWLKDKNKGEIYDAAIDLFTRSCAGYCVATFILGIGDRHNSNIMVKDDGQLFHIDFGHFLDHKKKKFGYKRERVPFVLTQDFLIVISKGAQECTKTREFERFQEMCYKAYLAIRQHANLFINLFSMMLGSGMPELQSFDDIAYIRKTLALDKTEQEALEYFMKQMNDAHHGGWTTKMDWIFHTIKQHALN
Please keep in mind that the values are log10 of IC50 expressed in µM.

// query Find the recorded log10 of IC50 belonging to `FC(F)(F)c1nncn1C1CCN(Cc2cc3nc(-c4cccc5[nH]ccc45)nc(N4CCOCC4)c3s2)CC1` and report it.
// result 0.60

// query Find the recorded log10 of IC50 belonging to Cc1nnc2n1[C@H]1CCN(Cc3cc4nc(-c5cccc(O)c5)nc(N5CCOCC5)c4s3)C[C@@H]1CC2 (relative stereo) and report it.
// result -1.00

// query Find the recorded log10 of IC50 belonging to FC(F)(F)c1nnc2n1[C@H]1CCN(Cc3cc4nc(-c5cccc6[nH]ncc56)nc(N5CCOCC5)c4s3)C[C@H]1CC2 (relative stereo) and report it.
// result -0.50

// query Find the recorded log10 of IC50 belonging to `FC(F)(F)c1nncn1C1CCN(Cc2cc3nc(-c4cccc5[nH]ncc45)nc(N4CCOCC4)c3s2)CC1` and report it.
// result -0.50

// query Find the recorded log10 of IC50 belonging to `Cc1nncn1C1CCN(Cc2cc3nc(-c4cccc5[nH]ccc45)nc(N4CCOCC4)c3s2)CC1` and report it.
// result 0.30

// query Find the recorded log10 of IC50 belonging to FC(F)(F)c1nnc2n1[C@H]1CCN(Cc3cc4nc(-c5cccc6[nH]ccc56)nc(N5CCOCC5)c4s3)C[C@H]1CC2 (relative stereo) and report it.
// result 0.20

// query Find the recorded log10 of IC50 belonging to `Oc1cccc(-c2nc(N3CCOCC3)c3sc(CN4CCC(n5cnnc5C(F)(F)F)CC4)cc3n2)c1` and report it.
// result -1.20

// query Find the recorded log10 of IC50 belonging to Oc1cccc(-c2nc(N3CCOCC3)c3sc(CN4CC[C@H]5[C@H](CCc6nnc(C(F)(F)F)n65)C4)cc3n2)c1 (relative stereo) and report it.
// result -1.20

// query Find the recorded log10 of IC50 belonging to `Cc1nncn1C1CCN(Cc2cc3nc(-c4cccc5[nH]ncc45)nc(N4CCOCC4)c3s2)CC1` and report it.
// result -0.50

// query Find the recorded log10 of IC50 belonging to `Cc1nncn1C1CCN(Cc2cc3nc(-c4cccc(O)c4)nc(N4CCOCC4)c3s2)CC1` and report it.
// result -1.00

// query Find the recorded log10 of IC50 belonging to FC(F)(F)c1nnc2n1[C@H]1CCN(Cc3cc4nc(-c5cccc6[nH]ncc56)nc(N5CCOCC5)c4s3)C[C@@H]1CC2 (relative stereo) and report it.
// result -0.80

// query Find the recorded log10 of IC50 belonging to FC(F)(F)c1nnc2n1[C@H]1CCN(Cc3cc4nc(-c5cccc6[nH]ccc56)nc(N5CCOCC5)c4s3)C[C@@H]1CC2 (relative stereo) and report it.
// result -0.30

// query Find the recorded log10 of IC50 belonging to Cc1nnc2n1[C@H]1CCN(Cc3cc4nc(-c5cccc6[nH]ccc56)nc(N5CCOCC5)c4s3)C[C@@H]1CC2 (relative stereo) and report it.
// result 0.30

Reference source: ChEMBL document CHEMBL4052600
